system: Vero (kidney epithelial cells; ATCC CCL-81); assay: Cytotoxicity assay (CellTiter-Glo cell viability, 72 hours); format: cell-based; conditions: Vero cells, 72 hours, growth inhibition; read-out: Cytotoxicity IC50
pIC50: −log10 of the molar value. *1 amine or outer side, *2 acyl side, *3 side chain or, on linkers, in order; H or OH if unused. Where a SMILES comes first, the peptide text is derived from it. Bridges are numbered along the chain shown (N, C = ends). [ ]: non-standard residue; d: D form. The star is where a group is joined. ξ: configuration not given here. Phe(3,5-F2) = N[C@@H](Cc1cc(F)cc(F)c1)C(=O)O; Pro(4S-Me) = C[C@@H]1CN[C@H](C(=O)O)C1; NHPh(4-CF3) = FC(F)(F)c1ccc(N*)cc1; ξPro(4R-Me) = C[C@H]1CNC(C(=O)O)C1; NH(4-Me-phenyl) = Cc1ccc(N*)cc1; aThr = C[C@H](O)[C@H](N)C(=O)O; Pip = O=C(O)[C@@H]1CCCCN1; NMeA = CN[C@@H](C)C(=O)O; ξPip = O=C(O)C1CCCCN1; CO = O=C([*:1])[*:2]; ξP = O=C(O)C1CCCN1

{"Compound": "C[C@@H]1C[C@H]2C(=O)OC[C@H](NC(=O)[C@H](Cc3ccccc3)NC(=O)Nc3ccc4c(c3)CCN4C)C(=O)N3CCC[C@H]3C(=O)N3CCCC[C@H]3C(=O)N[C@@H](C)C(=O)N2C1", "Value Relation Sign": "=", "pIC50": 4.12}
{"Compound": "Cc1ccc(NC(=O)N[C@@H](Cc2cc(F)cc(F)c2)C(=O)N[C@@H]2C(=O)N3CCCC3C(=O)N(C)[C@@H](C)C(=O)N[C@@H](C)C(=O)N3CCCC3C(=O)O[C@H]2C)cc1 (some centres unmarked) [Compound 25] ({NH(4-Me-phenyl)-CO}-[Phe(3,5-F2)][aThr][ξP][NMeA]A[ξP]; ester 2-C)", "Value Relation Sign": "=", "pIC50": 4.97}
{"Compound": "C[C@@H]1C[C@H]2C(=O)OC[C@H](NC(=O)[C@H](Cc3ccccc3)NC(=O)Nc3ccccc3Cl)C(=O)N3CCC[C@H]3C(=O)N3CCCC[C@H]3C(=O)N[C@@H](C)C(=O)N2C1", "Value Relation Sign": "<", "pIC50": 4.00}
{"Compound": "Cc1ccc(NC(=O)N[C@@H](Cc2cc(F)cc(F)c2)C(=O)N[C@@H]2C(=O)N3CCCC3C(=O)N3CCCCC3C(=O)N[C@@H](C)C(=O)N3C[C@H](C)CC3C(=O)O[C@H]2C)cc1 (stereo partly drawn) [Compound 39] ({NH(4-Me-phenyl)-CO}-[Phe(3,5-F2)][aThr][ξP][ξPip]A[ξPro(4R-Me)]; ester 2-C)", "Value Relation Sign": "=", "pIC50": 4.40}
{"Compound": "C[C@@H]1C[C@H]2C(=O)OC[C@H](NC(=O)[C@H](Cc3ccccc3)NC(=O)Nc3ccc(Cl)cc3)C(=O)N3CCC[C@H]3C(=O)N3CCCC[C@H]3C(=O)N[C@@H](C)C(=O)N2C1", "Value Relation Sign": "=", "pIC50": 4.20}
{"Compound": "Cc1ccc(NC(=O)N[C@@H](Cc2cc(F)cc(F)c2)C(=O)N[C@H]2COC(=O)C3C[C@H](C)CN3C(=O)[C@H](C)NC(=O)C3CCCCN3C(=O)C3CCCN3C2=O)cc1 (some centres unmarked)", "Value Relation Sign": "=", "pIC50": 4.25}
{"Compound": "C[C@@H]1C[C@H]2C(=O)OC[C@H](NC(=O)[C@H](Cc3ccccc3)NC(=O)Nc3ccc(N(C)C)cc3)C(=O)N3CCC[C@H]3C(=O)N3CCCC[C@H]3C(=O)N[C@@H](C)C(=O)N2C1", "Value Relation Sign": "=", "pIC50": 4.04}
{"Compound": "C[C@@H]1C[C@H]2C(=O)OC[C@H](NC(=O)[C@H](Cc3ccccc3)NC(=O)Nc3cccc(Cl)c3)C(=O)N3CCC[C@H]3C(=O)N3CCCC[C@H]3C(=O)N[C@@H](C)C(=O)N2C1", "Value Relation Sign": "=", "pIC50": 4.05}
{"Compound": "COc1ccc(NC(=O)N[C@@H](Cc2ccccc2)C(=O)N[C@H]2COC(=O)[C@@H]3C[C@@H](C)CN3C(=O)[C@H](C)NC(=O)[C@@H]3CCCCN3C(=O)[C@@H]3CCCN3C2=O)cc1", "Value Relation Sign": "<", "pIC50": 4.00}
{"Compound": "Cc1ccc(NC(=O)N[C@@H](Cc2ccccc2)C(=O)N[C@H]2COC(=O)[C@@H]3C[C@@H](C)CN3C(=O)[C@H](C)NC(=O)[C@@H]3CCCCN3C(=O)[C@@H]3CCCN3C2=O)cc1", "Value Relation Sign": "=", "pIC50": 4.13}
{"Compound": "Cc1ccc(NC(=O)N[C@@H](Cc2cc(F)cc(F)c2)C(=O)N[C@H]2COC(=O)[C@@H]3C[C@@H](C)CN3C(=O)[C@H](C)NC(=O)[C@@H]3CCCCN3C(=O)[C@@H]3CCCN3C2=O)cc1", "Value Relation Sign": "=", "pIC50": 4.03}
{"Compound": "C[C@@H]1NC(=O)[C@@H]2CCCCN2C(=O)[C@@H]2CCCN2C(=O)[C@@H](NC(=O)[C@H](Cc2cc(F)cc(F)c2)NC(=O)Nc2ccc(C(F)(F)F)cc2)[C@H](C)OC(=O)[C@@H]2CCCN2C1=O [Compound 16] ({NHPh(4-CF3)-CO}-[Phe(3,5-F2)][aThr]P[Pip]AP; ester 2-C)", "Value Relation Sign": "=", "pIC50": 4.13}
{"Compound": "Cc1ccc(NC(=O)N[C@@H](Cc2ccccc2)C(=O)N[C@H]2COC(=O)C3C[C@H](C)CN3C(=O)[C@H](C)NC(=O)C3CCCCN3C(=O)C3CCCN3C2=O)cc1 (some centres unmarked)", "Value Relation Sign": "=", "pIC50": 4.13}
{"Compound": "Cc1ccc(NC(=O)N[C@@H](Cc2cc(F)cc(F)c2)C(=O)N[C@@H]2C(=O)N3CCC[C@H]3C(=O)N3CCCC[C@H]3C(=O)N[C@@H](C)C(=O)N3CCC[C@H]3C(=O)O[C@H]2C)cc1 [Compound 15] ({NH(4-Me-phenyl)-CO}-[Phe(3,5-F2)][aThr]P[Pip]AP; ester 2-C)", "Value Relation Sign": "=", "pIC50": 4.40}
{"Compound": "C[C@@H]1C[C@H]2C(=O)OC[C@H](NC(=O)[C@H](Cc3ccccc3)NC(=O)Nc3ccc4ccn(C)c4c3)C(=O)N3CCC[C@H]3C(=O)N3CCCC[C@H]3C(=O)N[C@@H](C)C(=O)N2C1", "Value Relation Sign": "=", "pIC50": 4.05}
{"Compound": "C[C@H]1C[C@H]2C(=O)O[C@@H](C)[C@H](NC(=O)[C@H](Cc3cc(F)cc(F)c3)NC(=O)Nc3ccc(C(F)(F)F)cc3)C(=O)N3CCC[C@H]3C(=O)N3CCCC[C@H]3C(=O)N[C@@H](C)C(=O)N2C1 [Compound 19] ({NHPh(4-CF3)-CO}-[Phe(3,5-F2)][aThr]P[Pip]A[Pro(4S-Me)]; ester 2-C)", "Value Relation Sign": "=", "pIC50": 4.43}
{"Compound": "C[C@@H]1C[C@H]2C(=O)OC[C@H](NC(=O)[C@H](Cc3ccccc3)NC(=O)Nc3ccccc3)C(=O)N3CCC[C@H]3C(=O)N3CCCC[C@H]3C(=O)N[C@@H](C)C(=O)N2C1", "Value Relation Sign": "<", "pIC50": 4.00}
